Hey, just so you know, these numbers are from the RNAGym collection of RNA variant scans (doi:10.7554/elife.80360).

B1: HDV Ribozyme (parent)
chain: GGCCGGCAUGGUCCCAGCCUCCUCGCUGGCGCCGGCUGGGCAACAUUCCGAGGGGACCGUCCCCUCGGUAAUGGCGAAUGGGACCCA

Variants of: B1
experiment: self-cleavage, relative activity (ratio to wild type); higher = more cleavage; co-transcriptional
parameter: self-cleavage
Numbers only.

// worked examples, self-cleavage included
- variantAnnotation: "G1C G10C"
  self-cleavage: 0.095
- variantAnnotation: "U9A C32G"
  self-cleavage: 0.0489
- variantAnnotation: "G67A C84A"
  self-cleavage: 0.831

Hi, could you look up self-cleavage for each item in my list?
1. C62G C64U
2. U27G U47C

Reply:
1. 0.485
2. 0.383

Hi, could you look up self-cleavage for each item in my list?
1. U27A A77G
2. C49A A71U
3. G11C G82A
4. C15A G17A
5. G1U G10C
6. C63U C84U
7. G31U G76U
8. C7U C13G

Reply:
[1.15, 0.849, 0.262, 0.302, 0.292, 0.726, 0.585, 0]

Hi, could you look up self-cleavage for each item in my list?
1. G10C G17U
2. C18U G82A

Reply:
1: 0.494; 2: 0.194

Hi, could you look up self-cleavage for each item in my list?
1. G34U C49U
2. C18G C41U
3. A83C A87U
4. U27G G73C
5. C26G G39U
6. G2U U65C
7. G38A G54U

Reply:
0.136
0.161
0.346
0.0978
0.324
0.0391
0.073
